- Test system: Giardia duodenalis
- method notes: In vitro giardicidal susceptibility assay (trophozoite growth inhibition)
- Format: cell-based, Giardia duodenalis (G. intestinalis strain IMSS:0696:1)
- particulars: Giardia duodenalis, 48 h, trophozoites, 48 h incubation then 48 h subculture; means of three experiments; read-out: IC50 G. duodenalis
IC50 values, listed per item
A complete answer gives the number followed by the unit.

Solved entries (count: 3):
1. Cc1ncc([N+](=O)[O-])n1CCOC(=O)NC1CCCCC1 ... 460 nM
2. Cc1ncc([N+](=O)[O-])n1CC(C)O (stereo not shown) [Secnidazole, secnidazole, reference compound] ... 4110 nM
3. Cc1ncc([N+](=O)[O-])n1CCOC(=O)Nc1ccc(F)cc1 ... 2030 nM

# evaluate next
Quick one: IC50 of Cc1ncc([N+](=O)[O-])n1CC(C)OC(=O)Nc1ccc([N+](=O)[O-])cc1 (stereo not shown) ?
860 nM
